# targetSystem: HDAC6 (Homo sapiens)
# Construct: purchased BPS Bioscience 50006
# Sequence (Q9UBN7 whole entry): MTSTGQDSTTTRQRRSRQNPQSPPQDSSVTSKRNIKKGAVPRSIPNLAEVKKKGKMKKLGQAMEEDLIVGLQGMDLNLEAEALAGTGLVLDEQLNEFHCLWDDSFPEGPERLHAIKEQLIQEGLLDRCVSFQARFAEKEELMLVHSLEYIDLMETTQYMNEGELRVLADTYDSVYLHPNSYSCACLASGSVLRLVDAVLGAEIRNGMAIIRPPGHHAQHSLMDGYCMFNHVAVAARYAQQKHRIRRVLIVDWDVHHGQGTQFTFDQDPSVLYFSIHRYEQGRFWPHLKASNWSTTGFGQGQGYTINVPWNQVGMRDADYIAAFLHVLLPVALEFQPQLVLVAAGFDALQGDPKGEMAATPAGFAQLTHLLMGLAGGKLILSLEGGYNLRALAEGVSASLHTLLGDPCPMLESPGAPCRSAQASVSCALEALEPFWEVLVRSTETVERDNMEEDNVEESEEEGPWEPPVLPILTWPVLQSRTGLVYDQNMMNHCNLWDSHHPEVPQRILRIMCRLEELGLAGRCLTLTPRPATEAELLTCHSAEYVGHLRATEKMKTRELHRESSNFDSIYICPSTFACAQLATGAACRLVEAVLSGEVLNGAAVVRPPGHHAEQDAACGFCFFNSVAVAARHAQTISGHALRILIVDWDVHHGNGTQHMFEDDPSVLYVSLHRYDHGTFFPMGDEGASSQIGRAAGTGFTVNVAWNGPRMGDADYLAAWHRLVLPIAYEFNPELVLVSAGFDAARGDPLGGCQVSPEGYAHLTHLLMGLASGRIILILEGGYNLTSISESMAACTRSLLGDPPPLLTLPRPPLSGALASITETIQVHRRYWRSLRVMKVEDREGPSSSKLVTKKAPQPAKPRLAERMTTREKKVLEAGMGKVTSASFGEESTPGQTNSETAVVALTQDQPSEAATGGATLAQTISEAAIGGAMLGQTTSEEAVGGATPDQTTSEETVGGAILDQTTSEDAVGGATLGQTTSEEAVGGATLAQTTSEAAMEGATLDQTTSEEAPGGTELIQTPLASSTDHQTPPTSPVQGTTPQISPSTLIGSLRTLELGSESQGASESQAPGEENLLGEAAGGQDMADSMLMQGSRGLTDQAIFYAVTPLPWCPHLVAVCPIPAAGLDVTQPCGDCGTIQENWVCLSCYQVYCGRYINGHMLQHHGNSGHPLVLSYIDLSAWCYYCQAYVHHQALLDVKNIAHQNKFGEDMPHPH
# runDescription: In vitro HDAC6 inhibitory assay (BPS Bioscience, fluorogenic)
# Type: biochemical
# experimentalConditions: 10 µM
Please mark MET if the recorded inhibition at 10 µM is equal to or greater than 10%, and NOT MET if it falls below.

> print(dat)
                                   molecule  grouplabel
1  Cc1c(C(=O)NO)sc2ncnc(Nc3ccc(Cl)cc3)c12 [Compound 15c]     NOT MET

Q) Is the recorded value of inhibition at 10 µM equal to or greater than 10% for this molecule? Cc1c(C(=O)NO)sc2ncnc(Nc3ccc(NC(=O)Nc4ccccc4)cc3)c12 [Compound 7a]
A) NOT MET

Q) Is the recorded value of inhibition at 10 µM equal to or greater than 10% for this molecule? Cc1c(C(=O)NO)sc2ncnc(Nc3ccc(NC(=S)Nc4ccccc4)cc3)c12 [Compound 7d]
A) NOT MET

Q) Is the recorded value of inhibition at 10 µM equal to or greater than 10% for this molecule? Cc1c(C(=O)NO)sc2ncnc(Nc3ccccc3)c12 [Compound 15b]
A) MET
